Recorded measurements of pIC50, one per entry
- Target or system: ALK5 T204D (kinase domain of human ALK5, amino acids 200-503) (Homo sapiens, UniProt P36897, T204D)
- Construct: The kinase domain of human ALK5 (amino acids 200-503)
- Sequence (P36897 200-503 T204D): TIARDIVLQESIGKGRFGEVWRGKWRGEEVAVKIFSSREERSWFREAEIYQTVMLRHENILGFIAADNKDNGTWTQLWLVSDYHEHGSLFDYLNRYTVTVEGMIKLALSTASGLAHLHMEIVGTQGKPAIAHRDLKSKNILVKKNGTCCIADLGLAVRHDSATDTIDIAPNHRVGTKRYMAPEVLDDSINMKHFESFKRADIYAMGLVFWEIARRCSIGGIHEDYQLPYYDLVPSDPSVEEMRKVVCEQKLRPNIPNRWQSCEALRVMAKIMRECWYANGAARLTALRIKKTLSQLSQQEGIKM
- Test details: ALK5 kinase activity, [33P] phosphate incorporation into casein
- Condition: casein substrate, 1 μM unlabelled ATP
- Method: The kinase activity of ALK5 is assessed by measuring radiolabelled phosphate [33P] incorporation in to the generic substrate, casein. The kinase domain of human ALK5 (amino acids 200-503) is fused to an N-terminal histidine tag. […] Test compounds and reference compounds are dissolved in assay buffer without DTT containing 5% (v/v) DMSO. […] Total enzyme activity is determined by measuring ALK5 T204D activity in the absence of ALK5 kinase inhibitor reference compounds. […]
pIC50: −log10 of the molar value.
Test readout: pIC50

Compound | Test readout | Observed
CC(C)N1CCN(C(=O)c2ccc(-c3cncc(-c4ccnc(-c5ccccn5)n4)c3)cc2)CC1 [Example 3] | pIC50 | 6.23
Cc1cccc(-c2nc(OCc3ccccc3)cc(-c3cncc(-c4ccc(C(=O)N5CCN(C(C)C)CC5)cc4)c3)n2)n1 [Example 8] | pIC50 | 6.58
Cc1cccc(-c2nc(OCCc3c[nH]c4ccccc34)cc(-c3cccnc3)n2)n1 [Example 6] | pIC50 | 6.58
CC(C)N1CCN(C(=O)c2ccc(-c3cncc(-c4cc(Cl)nc(-c5ccccn5)n4)c3)cc2)CC1 [Example 1] | pIC50 | 6.47
CC(C)N1CCN(C(=O)c2ccc(-c3cncc(-c4cc(OCc5ccccc5)nc(-c5ccccn5)n4)c3)cc2)CC1 [Example 11] | pIC50 | 7.62
